Assign inhibition at 10 µg/mL to each entry below.
- MEASUREMENT_DESCRIPTION: Antiinflammatory activity in fMLP/cytochalasin B-stimulated human neutrophils assessed as inhibition of elastase release at 10 ug/ml after 5 mins
- Type: functional
- CONDITION: Neutrophil
Answers are plain numbers, in %.

Below are worked cases with known answers.
[
  {
    "QUERY_SMILES": "CC(=O)OC[C@H](Cc1ccccc1)NC(=O)[C@H](Cc1ccc2ccccc2c1)NC(=O)OCC1c2ccccc2-c2ccccc21",
    "MEASUREMENT_KIND": "inhibition at 10 µg/mL",
    "SCALE_UNIT": "%",
    "DATA_VALUE": 37.8
  },
  {
    "QUERY_SMILES": "CC(=O)OC[C@H](Cc1ccccc1)NC(=O)[C@H](Cc1ccccc1)NC(=O)OC(C)(C)C",
    "MEASUREMENT_KIND": "inhibition at 10 µg/mL",
    "SCALE_UNIT": "%",
    "DATA_VALUE": 18.9
  },
  {
    "QUERY_SMILES": "CC(=O)OC[C@H](Cc1ccccc1)NC(=O)[C@H](Cc1ccccc1)NC(=O)OCC1c2ccccc2-c2ccccc21",
    "MEASUREMENT_KIND": "inhibition at 10 µg/mL",
    "SCALE_UNIT": "%",
    "DATA_VALUE": 39.5
  },
  {
    "QUERY_SMILES": "CC(=O)OC[C@@H](Cc1ccccc1)NC(=O)[C@H](Cc1ccccc1)NC(=O)OCc1ccccc1",
    "MEASUREMENT_KIND": "inhibition at 10 µg/mL",
    "SCALE_UNIT": "%",
    "DATA_VALUE": 35.4
  },
  {
    "QUERY_SMILES": "CC(=O)OC[C@@H](Cc1ccccc1)NC(=O)[C@H](Cc1ccccc1)NC(=O)OC(C)(C)C",
    "MEASUREMENT_KIND": "inhibition at 10 µg/mL",
    "SCALE_UNIT": "%",
    "DATA_VALUE": 11
  },
  {
    "QUERY_SMILES": "CC(=O)OC[C@@H](Cc1ccccc1)NC(=O)[C@H](Cc1ccc(OC(C)(C)C)cc1)NC(=O)OCC1c2ccccc2-c2ccccc21",
    "MEASUREMENT_KIND": "inhibition at 10 µg/mL",
    "SCALE_UNIT": "%",
    "DATA_VALUE": 31.9
  },
  {
    "QUERY_SMILES": "CC(=O)OC[C@@H](Cc1ccccc1)NC(=O)[C@@H](NC(=O)OCC1c2ccccc2-c2ccccc21)C(C)C",
    "MEASUREMENT_KIND": "inhibition at 10 µg/mL",
    "SCALE_UNIT": "%",
    "DATA_VALUE": 34.6
  }
]

# input for lookup
Entry `O=C(N[C@@H](Cc1c[nH]c2ccccc12)C(=O)O)OCC1c2ccccc2-c2ccccc21` , inhibition at 10 µg/mL reported as 45.4

###

Assign inhibition at 10 µg/mL to each entry below.
- MEASUREMENT_DESCRIPTION: Antiinflammatory activity in fMLP/cytochalasin B-stimulated human neutrophils assessed as inhibition of superoxide anion generation at 10 ug/ml after 5 mins
- Type: functional
- CONDITION: Neutrophil
Answers are plain numbers, in %.

Below are worked cases with known answers.
[
  {
    "QUERY_SMILES": "CC(=O)OC[C@@H](Cc1ccccc1)NC(=O)[C@H](Cc1ccccc1)NC(=O)OCc1ccccc1",
    "inhibition at 10 µg/mL / %": 40.9
  },
  {
    "QUERY_SMILES": "CC(=O)OC[C@H](Cc1ccccc1)NC(=O)[C@H](Cc1c[nH]c2ccccc12)NC(=O)OCC1c2ccccc2-c2ccccc21",
    "inhibition at 10 µg/mL / %": 24.5
  },
  {
    "QUERY_SMILES": "CC(=O)OC[C@@H](Cc1ccccc1)NC(=O)[C@H](Cc1ccccc1)NC(=O)OCC1c2ccccc2-c2ccccc21",
    "inhibition at 10 µg/mL / %": 31.3
  },
  {
    "QUERY_SMILES": "CC(=O)OC[C@H](Cc1ccccc1)NC(=O)[C@@H](NC(=O)OCC1c2ccccc2-c2ccccc21)C(C)C",
    "inhibition at 10 µg/mL / %": -6.3
  },
  {
    "QUERY_SMILES": "CC(=O)OC[C@@H](Cc1ccccc1)NC(=O)[C@H](Cc1ccc(O)cc1)NC(=O)OCC1c2ccccc2-c2ccccc21",
    "inhibition at 10 µg/mL / %": 8
  },
  {
    "QUERY_SMILES": "CC(=O)OC[C@H](Cc1ccccc1)NC(=O)[C@H](Cc1ccc2ccccc2c1)NC(=O)OCC1c2ccccc2-c2ccccc21",
    "inhibition at 10 µg/mL / %": 5
  },
  {
    "QUERY_SMILES": "CC(=O)OC[C@H](Cc1ccccc1)NC(=O)[C@H](Cc1ccccc1)NC(=O)OCc1ccccc1",
    "inhibition at 10 µg/mL / %": 39.3
  },
  {
    "QUERY_SMILES": "CC(=O)OC[C@@H](Cc1ccccc1)NC(=O)[C@@H](N)Cc1ccc(O)cc1",
    "inhibition at 10 µg/mL / %": 8
  }
]

For each of the items listed, what is its inhibition at 10 µg/mL?
1. CC(=O)OC[C@H](Cc1ccccc1)NC(=O)[C@H](Cc1ccc(O)cc1)NC(=O)OCC1c2ccccc2-c2ccccc21
2. CC(=O)OC[C@@H](Cc1ccccc1)NC(=O)[C@H](Cc1ccc(OC(C)(C)C)cc1)NC(=O)OCC1c2ccccc2-c2ccccc21
3. CC(=O)OC[C@@H](Cc1ccccc1)NC(=O)[C@H](Cc1cn(C(c2ccccc2)(c2ccccc2)c2ccccc2)cn1)NC(=O)OCC1c2ccccc2-c2ccccc21
4. CC(=O)OC[C@H](Cc1ccccc1)NC(=O)[C@@H](N)Cc1ccc(O)cc1
5. CC(=O)OC[C@H](Cc1ccccc1)NC(=O)[C@H](Cc1ccc(OC(C)(C)C)cc1)NC(=O)OCC1c2ccccc2-c2ccccc21
6. CC[C@H](C)[C@H](NC(=O)OCC1c2ccccc2-c2ccccc21)C(=O)N[C@@H](COC(C)=O)Cc1ccccc1
7. CC(=O)OC[C@H](Cc1ccccc1)NC(=O)[C@H](Cc1ccccc1)NC(=O)OC(C)(C)C

-0.5
22.3
6.6
-0.5
25.9
6
42.1

Entry `CC(=O)OC[C@@H](Cc1ccccc1)NC(=O)[C@H](Cc1ccccc1)NC(=O)OC(C)(C)C` , inhibition at 10 µg/mL reported as 4.7

###

- MEASUREMENT_DESCRIPTION: Antiinflammatory activity in fMLP/cytochalasin B-stimulated human neutrophils assessed as inhibition of elastase release at 10 ug/ml after 5 mins
- Assay type: functional
- CONDITION: Neutrophil
Returns one of rule met or rule not met; rule met when inhibition at 10 µg/mL is >= 30%.

Example entries begin here.
[
  {
    "QUERY_SMILES": "CC(C)[C@H](NC(=O)OCC1c2ccccc2-c2ccccc21)C(=O)O",
    "ANSWER_LABEL": "rule not met"
  },
  {
    "QUERY_SMILES": "CC(=O)OC[C@H](Cc1ccccc1)NC(=O)[C@@H](NC(=O)OCC1c2ccccc2-c2ccccc21)C(C)C",
    "ANSWER_LABEL": "rule not met"
  },
  {
    "QUERY_SMILES": "CC[C@H](C)[C@H](NC(=O)OCC1c2ccccc2-c2ccccc21)C(=O)N[C@@H](COC(C)=O)Cc1ccccc1",
    "ANSWER_LABEL": "rule not met"
  },
  {
    "QUERY_SMILES": "CC(=O)OC[C@H](Cc1ccccc1)NC(=O)[C@@H](N)Cc1ccc(O)cc1",
    "ANSWER_LABEL": "rule not met"
  },
  {
    "QUERY_SMILES": "CC[C@H](C)[C@H](NC(=O)OCC1c2ccccc2-c2ccccc21)C(=O)O",
    "ANSWER_LABEL": "rule met"
  }
]

Reported inhibition at 10 µg/mL at or above 30%? `CC(=O)OC[C@H](Cc1ccccc1)NC(=O)[C@H](Cc1ccccc1)NC(=O)OCc1ccccc1`
rule not met

Reported inhibition at 10 µg/mL at or above 30%? `CC(=O)OC[C@H](Cc1ccccc1)NC(=O)[C@H](Cc1ccc(O)cc1)NC(=O)OCC1c2ccccc2-c2ccccc21`
rule not met

Reported inhibition at 10 µg/mL at or above 30%? `CC(=O)OC[C@H](Cc1ccccc1)NC(=O)[C@H](Cc1cn(C(c2ccccc2)(c2ccccc2)c2ccccc2)cn1)NC(=O)OCC1c2ccccc2-c2ccccc21`
rule met

Reported inhibition at 10 µg/mL at or above 30%? `CC(=O)OC[C@@H](Cc1ccccc1)NC(=O)[C@H](Cc1cn(C(c2ccccc2)(c2ccccc2)c2ccccc2)cn1)NC(=O)OCC1c2ccccc2-c2ccccc21`
rule not met

Reported inhibition at 10 µg/mL at or above 30%? `CC[C@H](C)[C@H](NC(=O)OCC1c2ccccc2-c2ccccc21)C(=O)N[C@H](COC(C)=O)Cc1ccccc1`
rule not met
